- experiment-summary: Caco2 permeability (bi-directional)
- Assay type: in vitro ADME, human
- assay-setup: human, pH 7.4; Caco-2, ratio of PappB>A/PappA>B
Classify: Satisfied when efflux ratio at 1 h, 10 µM is strictly less than 10; Not satisfied when efflux ratio at 1 h, 10 µM is not.

O=C(NCCc1ccccc1)c1ccc(-c2cccc3nc(NC(=O)C4CC4)nn23)c(F)c1 [Compound 111]: Satisfied

Proceed to the following item.
hey, is efflux ratio at 1 h, 10 µM for O=C(CCOc1ccccc1)Nc1ccc(-c2cccc3nc(NC(=O)C4CC4)nn23)cc1 [Compound 108] lower than 10 or not?
Satisfied

* * *

Reported EC50 values for a set of molecules
- Tested on: MMP13 in SW1353 cells
- experiment-summary: OSM/IL-1β signaling assay (MMP13 levels in SW1353 cells);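 further: secreted MMP13 captured by antibody, activated with APMA and its activity read by fluorescence, inhibition scaled between vehicle-treated triggered wells (0%) and untriggered wells (100%)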
- Assay type: cell-based
- assay-setup: Homo sapiens; SW1353 cells, OSM and IL-1β triggered, MMP13 levels 48 hours after triggering; read-out: MMP13 EC50

O=C(NCCc1ccccc1)c1ccc(-c2cccc3nc(NC(=O)C4CC4)nn23)c(F)c1: > 1000 nM

Give EC50 only, for "O=C(Nc1nc2cccc(-c3ccc(C(=O)N4CCC(C(=O)c5ccccc5)CC4)cc3)n2n1)C1CC1" , using MMP13 in SW1353 cells data.
> 1000 nM

Jot down EC50 (MMP13 in SW1353 cells) of "CC(=O)NC1CN(C(=O)c2ccc(-c3cccc4nc(NC(=O)C5CC5)nn34)cc2)C1" .
> 1000 nM

Fill in: EC50 on MMP13 in SW1353 cells, entry "O=C(Nc1nc2cccc(-c3ccc(OCC4CCCCC4)cc3)n2n1)C1CC1"
501 to 1000 nM

Please tell me the measured EC50 for "O=C(NCc1cccc(F)c1)c1ccc(-c2cccc3nc(NC(=O)C4CC4)nn23)cc1" ; system: MMP13 in SW1353 cells.
> 1000 nM

State recorded EC50 with MMP13 in SW1353 cells, entry "O=C(Nc1nc2cccc(-c3ccc(CNc4ccc(Cl)cc4F)cc3)n2n1)C1CC1" , no comment.
1 to 500 nM

Answer briefly: EC50 recorded on MMP13 in SW1353 cells for "O=C(Nc1nc2cccc(-c3ccc(C(=O)N4CCC(COc5cccnc5)CC4)cc3)n2n1)C1CC1"
> 1000 nM

State the measured EC50 (MMP13 in SW1353 cells) of "O=C(Nc1nc2cccc(-c3ccc(OCCOc4ccc(F)cc4)cc3)n2n1)C1CC1"
> 1000 nM

Under MMP13 in SW1353 cells: report EC50 of "O=C(Nc1nc2cccc(-c3ccc(OCc4ccc(-c5cn[nH]c5)nc4)cc3)n2n1)C1CC1" .
> 1000 nM

Report its EC50 with MMP13 in SW1353 cells as the test system: "O=C(N[C@@H]1CCN(Cc2ccccc2)C1)c1ccc(-c2cccc3nc(NC(=O)C4CC4)nn23)cc1"
> 1000 nM

Give EC50 only, for "O=C(Nc1nc2cccc(-c3ccc(OCc4ccccn4)cc3)n2n1)C1CC1" , using MMP13 in SW1353 cells data.
> 1000 nM

Report EC50 from MMP13 in SW1353 cells testing of "O=C(Nc1nc2cccc(-c3ccc(NCCc4ccccc4)nc3)n2n1)C1CC1"
> 1000 nM

Specify EC50 for "O=C(Nc1nc2cccc(-c3ccc(C(=O)N4CCCN(Cc5ccccc5)CC4)cc3)n2n1)C1CC1" , system MMP13 in SW1353 cells.
501 to 1000 nM

Provide measured EC50 on MMP13 in SW1353 cells for "O=C(Nc1nc2cccc(-c3ccc(CNc4ccccc4F)cc3)n2n1)C1CC1" please.
501 to 1000 nM

Look up and report measured EC50 (MMP13 in SW1353 cells) for the following molecule: "N#CC1CCN(C(=O)c2ccc(-c3cccc4nc(NC(=O)C5CC5)nn34)cc2)CC1"
1 to 500 nM

Give measured EC50 for NC(=O)C1CCCCN1C(=O)c1ccc(-c2cccc3nc(NC(=O)C4CC4)nn23)cc1 (stereo not drawn) (MMP13 in SW1353 cells).
> 1000 nM

Report EC50 from MMP13 in SW1353 cells testing of "O=C(Nc1nc2cccc(-c3ccc(CNc4ccon4)cc3)n2n1)C1CC1"
> 1000 nM

Would you please give the reported EC50 of "O=C(Nc1nc2cccc(-c3ccc(COc4ccccc4)cc3)n2n1)C1CC1" with MMP13 in SW1353 cells?
> 1000 nM

Please report EC50 with MMP13 in SW1353 cells for item "O=C(Nc1nc2cccc(-c3ccc(OCC4CCC4)cc3)n2n1)C1CC1" .
> 1000 nM

Provide EC50, system MMP13 in SW1353 cells, entry "CCCCN(CCCN1CCOCC1)C(=O)c1ccc(-c2cccc3nc(NC(=O)C4CC4)nn23)cc1"
> 1000 nM

State measured EC50 of the molecule "O=C(Nc1nc2cccc(-c3ccc(C(=O)N4CCOCC4)cc3)n2n1)C1CC1" with MMP13 in SW1353 cells.
> 1000 nM
